Molecular target: T1, 14-3-3σ, full-length, recombinant (human, UniProt P31947 1-248)
T1 sequence (looked up): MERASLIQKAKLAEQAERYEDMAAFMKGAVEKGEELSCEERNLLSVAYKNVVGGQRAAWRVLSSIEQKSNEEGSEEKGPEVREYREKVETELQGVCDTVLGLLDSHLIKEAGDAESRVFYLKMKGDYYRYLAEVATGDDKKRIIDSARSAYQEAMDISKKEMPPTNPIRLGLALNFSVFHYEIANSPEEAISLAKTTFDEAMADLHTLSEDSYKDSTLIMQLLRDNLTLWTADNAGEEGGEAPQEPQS
Assay: fluorescence polarisation
pKd: −log10 of the molar value. Where no end group is shown, it is not given here. [ ]: non-standard residue; d: D form. pT = C[C@@H](OP(=O)(O)O)[C@H](N)C(=O)O; FAM = fluorescein
pKd of 5 or higher: rule met. Under 5: rule not met.

The examples below pair each entry with its known result.
{"binder": "{FAM}-KYYITGEAEGFPA[pT]N (peptide, UniProt P03372 581-595, looked up) [N-FAM-2 variant with C-terminal residue N]", "category": "rule not met"}
{"binder": "{FAM}-KYYITGEAEGFPA[pT]I (peptide, UniProt P03372 581-595, looked up) [N-FAM-2 variant with C-terminal residue I]", "category": "rule met"}
{"binder": "{FAM}-KYYITGEAEGFPA[pT]V (peptide, UniProt P03372 581-595, looked up) [fluorescein-labeled N-FAM-ERα-ctp (N-FAM-2)]", "category": "rule met"}

### Prompt Dear colleague, could you confirm whether {FAM}-KYYITGEAEGFPA[pT]S (peptide, UniProt P03372 581-595, looked up) [N-FAM-2 variant with C-terminal residue S] has pKd at or above 5?
### Response rule not met
